LD50 overview
Experiment: Acute toxicity in sc dosed mouse
Assay type: organism-based
Details: in vivo
endpointName: LD50

1) COc1cccc(C23CCCC(C2)NC3)c1.O=C(O)C(=O)O (racemic)	> 100 mg/kg
2) Br.CC1N(C)C2CCCC1(c1ccccc1O)C2 (racemic)	> 100 mg/kg
3) CN1CC2(c3ccccc3)CCCC1C2.Cl (racemic)	> 30 mg/kg
4) C=CCN1CC2(c3ccccc3)CCCC1C2.O=C(O)C(=O)O (racemic)	> 100 mg/kg
5) Cl.O=C(CCCN1CC2(c3cccc(O)c3)CCCC1C2)c1ccccc1 (racemic)	> 100 mg/kg
6) O=C(O)C(=O)O.Oc1cccc(C23CCCC(C2)N(CCc2ccccc2)C3)c1 (racemic)	> 100 mg/kg
7) C=CCN1C2CCCC(c3cccc(O)c3)(C2)C1C.Cl (racemic)	> 30 mg/kg
8) CCCCN1C2CCCC(c3cccc(O)c3)(C2)C1C.Cl (racemic)	> 30 mg/kg
9) Cl.Oc1cccc(C23CCCC(C2)N(C/C=C/c2ccccc2)C3)c1 (racemic)	> 100 mg/kg
10) Cl.O=C(CCN1CC2(c3ccccc3)CCCC1C2)c1ccccc1 (racemic)	> 100 mg/kg
11) Br.COc1cccc(C23CCCC(C2)NC3C)c1 (racemic)	> 100 mg/kg
12) Br.CC1NC2CCCC1(c1cccc(O)c1)C2 (racemic)	> 100 mg/kg
13) Br.CC1N(C)C2CCCC1(c1ccc(O)cc1)C2 (racemic)	> 100 mg/kg
14) CC1N(C)C2CCCC1(c1ccccc1)C2.Cl (racemic)	> 30 mg/kg
15) O=C(O)C(=O)O.c1ccc(C23CCCC(C2)N(CC2CC2)C3)cc1 (racemic)	> 30 mg/kg
16) Cl.O=C(CCCN1CC2(c3cccc(O)c3)CCCC1C2)c1ccc(F)cc1 (racemic)	> 100 mg/kg
17) Br.CC1N(C)C2CCCC1(c1ccc(O)c(O)c1)C2 (racemic)	> 10 mg/kg
18) Br.CC1C2CCCC1(c1cccc(O)c1)C(C)N2C (racemic; 14)	> 30 mg/kg
19) C#CCN1C2CCCC(c3cccc(O)c3)(C2)C1C.Cl (racemic)	> 100 mg/kg
20) CN1CC2(c3cc(O)cc(O)c3)CCCC1C2 (racemic)	> 225 mg/kg
21) Br.Oc1cccc(C23CCCC(C2)NC3)c1 (racemic)	> 100 mg/kg
22) Cl.O=C(CCCN1CC2(c3ccccc3)CCCC1C2)c1ccc(F)cc1 (racemic)	> 200 mg/kg
23) C#CCN1CC2(c3cccc(O)c3)CCCC1C2.O=C(O)C(=O)O (racemic)	> 100 mg/kg
24) C=CCN1CC2(c3cccc(O)c3)CCCC1C2.Cl (racemic)	> 100 mg/kg
